SUBJECT_OF_TEST: DNA-3-methyladenine glycosylase (Homo sapiens) (UniProt P29372)
Sequence (P29372 whole entry): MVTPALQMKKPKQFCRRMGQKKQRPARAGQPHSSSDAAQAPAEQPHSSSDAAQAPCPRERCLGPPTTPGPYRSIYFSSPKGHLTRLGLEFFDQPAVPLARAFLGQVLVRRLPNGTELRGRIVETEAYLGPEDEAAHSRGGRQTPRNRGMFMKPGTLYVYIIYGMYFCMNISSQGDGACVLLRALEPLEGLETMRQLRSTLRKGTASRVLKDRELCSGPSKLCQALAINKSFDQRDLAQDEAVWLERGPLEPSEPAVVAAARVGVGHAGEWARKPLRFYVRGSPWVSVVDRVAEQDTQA
RECORDED_CONDITIONS: Compound Concentration 10.0 uM, Hit No;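 further: enzyme assay where MPG cuts a quenched duplex DNA oligonucleotide probe, paired with APE1 for strand incision and turnover, read as fluorescence at 594 nm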
Description: Inhibition of MPG by quantifying inhibition of MPG-mediated cleavage and dissociation of quenched duplex DNA oligonucleotides, measured as fluorescence at 594 nm. To generate a functional strand incision and increase turn-over this assay is coupled to APE1.
PROPERTY: inhibition (%)
Give bare numbers, in %.

Before answering, review these 3 worked examples.
> print(dat)
                                   molecule  unit.abbreviation  value.reported
1  CN1CCC(C(=O)c2cccc(NC(=O)c3c(F)cc(F)cc3F)n2)CC1                  %             2.3
2  Cc1ccc(S(=O)(=O)Nc2ccc(-n3nc(C(F)(F)F)cc3C(F)(F)F)cc2)cc1                  %              20
3           CCCOc1ccc2[nH]cc(C3=CCNCC3)c2n1                  %           -2.25

For the 6 molecules below, give their inhibition values.
1. O=C(Nc1cc(-c2ccccc2)nn1-c1ccccc1F)c1ccc([N+](=O)[O-])cc1
2. COc1cc(OC)c(NC(=O)Nc2cc(C)on2)cc1Cl
3. O=C(Nc1ccc(Cl)cc1)N[C@@H](Cc1ccccc1)C(=O)N1CCCCC1
4. CCCCCCCCCCCCCCC[C@@H](O)[C@@H](N)COP(=O)(O)O
5. COc1ccc(Cl)cc1[C@]1(F)C(=O)Nc2cc(C(F)(F)F)ccc21
6. COC(=O)C1=C(C)NC(C)=C(C(=O)OC(C)C)C1c1cccc2nonc12 (stereo unspecified)

9.2
-9.71
30.7
9.63
-5.04
-0.967
